Data provenance is patent US6914045B2.

# Tested on: Staphylococcus sp.
# assay_procedure: in vitro antibacterial evaluation, MIC by broth dilution
# Type: cell-based
# test_conditions: broth dilution, 18 hours at 35° C.; strain GC 4544
Numbered stars: 1 amine (or outer) side, 2 acyl side, 3 side chain; on linkers, the order of the positions; unused ones are H or OH. Square brackets hold non-standard residues; d marks the D form. Peptide text beside a SMILES is read from it. ξ: configuration not given here. X1 = N=C1NCC(C(O)C(N[*:1])C(=O)[*:2])N1C1OC(CO)C(O)C(O)C1O; ξEnduracididine(βξ-OH,4'ξ) = N=C1NCC(C(O)C(N)C(=O)O)N1
Reported MIC Staphylococcus aureus (GC 4544) values for the following compounds.

CC(c1ccccc1)C1NC(=O)CNC(=O)C(CO)NC(=O)C(C(O)C2CNC(=N)N2C2OC(CO)C(O)C(O)C2O)NC(=O)C(C(O)C2CNC(=N)N2)NC(=O)C(Cc2ccc(OC3OC(CO)C(OC4OC5COC(c6ccc(-c7ccc(Cl)cc7)cc6)OC5C(O)C4O)C(O)C3O)cc2)NC1=O (stereo not shown)
8 µg/mL
Cc1cccc(C2OCC3OC(OC4C(CO)OC(Oc5ccc(CC6NC(=O)C(C(C)c7ccccc7)NC(=O)CNC(=O)C(CO)NC(=O)C(C(O)C7CNC(=N)N7C7OC(CO)C(O)C(O)C7O)NC(=O)C(C(O)C7CNC(=N)N7)NC6=O)cc5)C(O)C4O)C(O)C(O)C3O2)c1 (stereo not shown)
2 µg/mL
CC(c1ccccc1)C1NC(=O)CNC(=O)C(CO)NC(=O)C(C(O)C2CNC(=N)N2C2OC(CO)C(O)C(O)C2O)NC(=O)C(C(O)C2CNC(=N)N2)NC(=O)C(Cc2ccc(OC3OC(CO)C(OC4OC5COC(Cc6ccc(Br)cc6)OC5C(O)C4O)C(O)C3O)cc2)NC1=O (stereo not shown)
<0.5 to 1 µg/mL
CC(c1ccccc1)C1NC(=O)CNC(=O)C(CO)NC(=O)C(C(O)C2CNC(=N)N2C2OC(CO)C(O)C(O)C2O)NC(=O)C(C(O)C2CNC(=N)N2)NC(=O)C(Cc2ccc(OC3OC(CO)C(OC4OC5COC(Cc6ccc(F)cc6)OC5C(O)C4O)C(O)C3O)cc2)NC1=O (stereo not shown)
2 µg/mL
CC(c1ccccc1)C1NC(=O)CNC(=O)C(CO[Si](C)(C)C(C)(C)C)NC(=O)C(C(O)C2CNC(=N)N2C2OC3COC(C)(C)OC3C3OC(C)(C)OC32)NC(=O)C(C(O)C2CNC(=N)N2)NC(=O)C(Cc2ccc(O)cc2)NC1=O (stereo not shown)
32 µg/mL

Input: Query: MIC Staphylococcus aureus (GC 4544); subject: N=C1NCC(C(O)C2NC(=O)C(Cc3ccc(O)cc3)NC(=O)C(Cc3ccccc3)NC(=O)CNC(=O)C(CO)NC(=O)C(C(O)C3CNC(=N)N3C3OC(CO)C(O)C(O)C3O)NC2=O)N1 (stereo not drawn) [Example 279a] (cyclo(GFY[ξEnduracididine(βξ-OH,4'ξ)][X1]S); configuration not given here)
Output: >64 µg/mL

Input: What value of MIC Staphylococcus aureus (GC 4544) has been reported for the following compound? CC(c1ccccc1)C1NC(=O)CNC(=O)C(CO)NC(=O)C(C(O)C2CNC(=N)N2C2OC(CO)C(O)C(O)C2O)NC(=O)C(C(O)C2CNC(=N)N2)NC(=O)C(Cc2ccc(OC3OC(CO)C(OC4OC(COCC=Cc5ccc(N(C)C)cc5)C(O)C(O)C4O)C(O)C3O)cc2)NC1=O (stereo not shown)
Output: 64 µg/mL

Input: Consider the compound CCCCOC(=O)CCC1OCC2OC(OC3C(CO)OC(Oc4ccc(CC5NC(=O)C(C(C)c6ccccc6)NC(=O)CNC(=O)C(CO)NC(=O)C(C(O)C6CNC(=N)N6C6OC(CO)C(O)C(O)C6O)NC(=O)C(C(O)C6CNC(=N)N6)NC5=O)cc4)C(O)C3O)C(O)C(O)C2O1 (stereo not shown) and give its measured MIC Staphylococcus aureus (GC 4544).
Output: 2 µg/mL

Input: Give the measured MIC Staphylococcus aureus (GC 4544) of CC(c1ccccc1)C1NC(=O)CNC(=O)C(CO)NC(=O)C(C(O)C2CNC(=N)N2C2OC(CO)C(O)C(O)C2O)NC(=O)C(C(O)C2CNC(=N)N2)NC(=O)C(Cc2ccc(OC3OC(CO)C(OC4OC5COC(CC67CC8CC(CC(C8)C6)C7)OC5C(O)C4O)C(O)C3O)cc2)NC1=O (stereo not shown) .
Output: 2 µg/mL

Input: Entry CC(=O)n1cc(C2OCC3OC(OC4C(CO)OC(Oc5ccc(CC6NC(=O)C(C(C)c7ccccc7)NC(=O)CNC(=O)C(CO)NC(=O)C(C(O)C7CNC(=N)N7C7OC(CO)C(O)C(O)C7O)NC(=O)C(C(O)C7CNC(=N)N7)NC6=O)cc5)C(O)C4O)C(O)C(O)C3O2)c2ccccc21 (stereo not shown) has what MIC Staphylococcus aureus (GC 4544)?
Output: 8 µg/mL
